Reference source for all entries: ChEMBL document CHEMBL3286247

assay_method_text: Inhibition of Staphylococcus aureus MraY by fluorescence assay
pIC50: −log10 of the molar value.

{"smiles_text": "N=C(N)NCCCCCC(=O)NCCCCCC(=O)NCCCN[C@H](C(=O)O)[C@H](O[C@@H]1O[C@H](CN)[C@@H](O)[C@H]1O)[C@H]1O[C@@H](n2ccc(=O)[nH]c2=O)[C@H](O)[C@@H]1O", "pIC50": 5.83}
{"smiles_text": "CCCCCCCCCCCCCCC[C@H](NC(=O)c1cnccn1)C(=O)NCCCN[C@H](C(=O)O)[C@H](O[C@@H]1O[C@H](CN)[C@@H](O)[C@H]1O)[C@H]1O[C@@H](n2ccc(=O)[nH]c2=O)[C@H](O)[C@@H]1O", "pIC50": 7.48}
{"smiles_text": "CCCCCCCCCCCCCCC[C@H](NC(=O)c1ccccc1)C(=O)NCCCN[C@H](C(=O)O)[C@H](O[C@@H]1O[C@H](CN)[C@@H](O)[C@H]1O)[C@H]1O[C@@H](n2ccc(=O)[nH]c2=O)[C@H](O)[C@@H]1O", "pIC50": 7.53}
{"smiles_text": "CCCCCCCCCCCCCCCCC(=O)N[C@@H](CCCNC(=N)N)C(=O)NCCCN[C@H](C(=O)NCCCCNC(=N)N)[C@H](O[C@@H]1O[C@H](CN)[C@@H](O)[C@H]1O)[C@H]1O[C@@H](n2ccc(=O)[nH]c2=O)[C@H](O)[C@@H]1O", "pIC50": 9.22}
